- Test Description: qHTS of pediatric cancer cell lines to identify multiple opportunities for drug repurposing: Primary screen for SJ-GBM2 cells (AID 1347091)
- Test Context: SJ-GBM2 viability, CellTiter-Glo luminescence, 48 h; series mostly up to 46 µM
Inconclusive results are not listed. Active and inactive are the calls of the source. Calls follow the shape of the dose curve; as a rule, active = well fitted cell-killing curve with a large enough effect; inconclusive = small, poorly fitted or top-dose-only effect; inactive = no such curve, though single readings can be large or run the other way.
Respond only with the outcome that fits, drawn from y (active), n (inactive)

Example entries begin here.
> print(dat)
                                   compound  assigned.label
1                CCN(CC)CCNC(=O)c1ccc(N)cc1               n
2  CCOC1OC(=O)C[C@H]1NC(=O)[C@@H]1CCCN1C(=O)[C@@H](NC(=O)c1ccc(N)c(Cl)c1)C(C)(C)C (stereo partly specified)               y
3                CCN(CC)CCOC(=O)c1ccc(N)cc1               n

Query string: # fetch the recorded call for COc1ccc(-c2coc3cc(O)ccc3c2=O)cc1 here
Result string: n

Query string: Record: O=c1c(-c2ccc(O)cc2)coc2cc(OC3O[C@H](CO)[C@H](O)[C@H](O)[C@H]3O)cc(O)c12 (stereo partly specified)
Result string: n

Query string: Could you do the same for Cc1ccc(/C=N/NC(=O)c2ccccc2Oc2ccccc2)o1 , please?
Result string: y

Query string: Here is the next compound: CN(C)Cc1cccc(N=C(c2ccccc2)c2c(O)[nH]c3cc(C(=O)N(C)C)ccc23)c1
Result string: y

Query string: Next compound up: NCCS
Result string: n

====

- Test Description: qHTS assay for measurement of the activity of small molecule inhibitors on Zika virus induced Caspase-3 activity in human iPSC derived neural progenitor cells (hNPCs) (AID 1224857); also: nearly all actives have a fitted effect of over 65% in size; also: potency is read from the fitted curve at half-maximal effect
- Test Context: hNPCs ZIKV-induced caspase-3/7, Caspase-Glo luminescence, 6 h; series mostly up to 45.7 µM
Inconclusive results are not listed. Calls of active or inactive are those of the source. The call rests on the fitted dose curve; in most records, active means well fitted inhibition curve with a large enough effect; inconclusive means small, poorly fitted or top-dose-only effect; inactive means no such curve, though single readings can be large or run the other way.
Experimental Endpoint: Potency

Worked cases, answers included:
> print(dat)
                                smiles.code    observed.value
1         O=c1cc(-c2ccccc2)oc2cc(O)cc(O)c12  20.9 µM (active)
2    COc1ccc(-c2cc(=O)c3c(O)cc(O)cc3o2)cc1O  18.7 µM (active)
3  Clc1ccc(-c2nc3sccn3c2C=NOCc2ccc(Cl)c(Cl)c2)cc1          inactive
4       Cn1cc(C=C2C(=O)Nc3cccnc32)c2ccccc21          inactive
5       CC=CCC=CCCC(=O)[C@H]1O[C@@H]1C(N)=O          inactive

Then this molecule:
Query string: Param item = COc1cc(Nc2ncc(F)c(Nc3ccc4c(n3)NC(=O)C(C)(C)O4)n2)cc(OC)c1OC ; retrieve measured Potency.
Result string: inactive

====

- Test Description: Quantitative High-Throughput drug screen in 47 multiple myeloma cell lines against the NCATS MIPE library collection: AMO1_DSMZ cell viability assay (AID 1918927; also: nearly all actives have a fitted effect of over 30% in size)
- Test Context: AMO1 myeloma cells viability, CellTiter-Glo ATP luminescence, 48 h; series mostly up to 45.8 µM
Inconclusive results are not listed. Calls of active or inactive are those of the source. The call rests on the fitted dose curve; in most records, active means well fitted cell-killing curve with a large enough effect; inconclusive means small, poorly fitted or top-dose-only effect, or effect the other way; inactive means no such curve, though single readings can be large or run the other way.
Thanks in advance; please answer with one of these: active, inactive

Example entries and their recorded answers appear below.
> print(dat)
                                   compound  assigned.label
1         CC1(C)CCC2=C(O1)c1ccccc1C(=O)C2=O          active
2      Oc1ccc(C2CCN(c3ccnc4ccccc34)CC2)cc1O          active
3  NC(=O)c1cccc(-c2cc(Nc3ccc(OC(F)(F)F)cc3)ncn2)c1          active
4         O=c1cc(-c2ccccc2)oc2cc(O)cc(O)c12          active
5  COc1ccc2c3c1OC1C[C@@H](O)C=C[C@@]31CCN(C)C2 (stereo partly specified)        inactive

Alright, here's another compound for you.
Query string: Test call for this compound, please: O=c1cc(CN2CCOCC2)occ1OCCCCCSc1ccnc2cc(C(F)(F)F)ccc12
Result string: active

====

- Study System: Thioredoxin reductase 1, cytoplasmic (Rattus norvegicus)
- Test Description: qHTS Assay for Inhibitors of Mammalian Selenoprotein Thioredoxin Reductase 1 (TrxR1) (AID 488773);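 also: drop in NADPH fluorescence over an 8 min run after selenite addition; nearly all actives have a fitted effect of over 40% in size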
- Test Context: purified TrxR1 enzyme activity; inhibition; series mostly up to 57.1 µM
- Description: The selenoprotein thioredoxin reductase (TrxR; EC 1.8.1.9) is a FAD containing homodimeric pyridine nucleotide-disulfide oxidoreductase with many cellular roles. Together with NADPH and its prime substrate thioredoxin (Trx), the enzyme forms the core of the Trx system. […] This BioAssay is a validation of an NADPH fluorescence-based, dual-purpose qHTS rTrxR1 assay designed to find potential inhibitors and substrates of rTrxR1. […]
Records with an inconclusive call do not appear. Active and inactive are the calls of the source. The call rests on the fitted dose curve; in most records, active means well fitted inhibition curve with a large enough effect; inconclusive means small, poorly fitted or top-dose-only effect; inactive means no such curve, though single readings can be large or run the other way.
Experimental Endpoint: outcome

Example results:
> print(dat)
                                   molecule  experimental.endpoint  observed.value
1           CCn1cc(C(=O)O)c(=O)c2ccc(C)nc21                outcome        inactive
2  COC(=O)[C@@H]1[C@H]2C[C@H]3c4[nH]c5ccccc5c4CCN3C[C@@H]2CC[C@@H]1O                outcome        inactive
3  CC/C(=C(\c1ccccc1)c1ccc(OCCN(C)C)cc1)c1ccccc1                outcome        inactive
4                                      NCCS                outcome        inactive

For each of the molecules below, note its outcome.
1. Cc1cccc(C)c1OCC(C)N (stereo not drawn)
2. CCCNC(=O)NS(=O)(=O)c1ccc(Cl)cc1
3. CN(C)CCC(c1ccccc1)c1ccccn1 (stereo not drawn)
4. CC(=O)CCCCn1c(=O)c2c(ncn2C)n(C)c1=O

Result string:
inactive
inactive
inactive
inactive

====

- Test Description: Quantitative High-Throughput drug screen in 47 multiple myeloma cell lines against the NCATS MIPE library collection: ARD_JJKsccE7 cell viability assay (AID 1918929)
- Test Context: ARD myeloma cell line viability, CellTiter-Glo, 48 h; series mostly up to 45.8 µM
Inconclusive results are not listed. The source made the active and inactive calls. Calls come from the whole dose curve; as a rule, active = well fitted cell-killing curve with a large enough effect; inconclusive = small, poorly fitted or top-dose-only effect, or effect the other way; inactive = no such curve, though single readings can be large or run the other way.
Respond using exactly one of the listed classes: yes (active), no (inactive)

Below, 5 compounds whose answers are already recorded.
Compound	Assigned Label
Clc1ccc(COC(Cn2ccnc2)c2ccc(Cl)cc2Cl)cc1 (configuration not stated)	yes
COc1cc2nc(-c3ccc(N4CCN(C)CC4)cc3)nc(NCCN3CCOCC3)c2cc1OC	yes
C[N+](C)(C)CC(=O)O	no
CC(C)C(C)C=CC(C)C1CCC2C3=CC=C4CC(O)CCC4(C)C3CCC21C (configuration not stated)	no
CC(=O)Nc1ccc([C@H](C)C(=O)Nc2ncc(C(C)C)s2)cc1	yes

Query string: Just curious, what result did O=C(Nc1ccccc1-c1cn2c(CN3CCNCC3)csc2n1)c1cnc2ccccc2n1 get here?
Result string: no

Query string: Okay, and COc1ccc(-c2oc3c(CC=C(C)C)c(OC4O[C@H](CO)[C@@H](O)[C@H](O)[C@@H]4O)cc(O)c3c(=O)c2OC2O[C@@H](C)[C@H](O)[C@@H](O)[C@@H]2O)cc1 (some centres not stated) ?
Result string: yes

Query string: O=C(O)[C@H]1O[C@H](Oc2cc3oc(-c4ccccc4)cc(=O)c3c(O)c2O)[C@H](O)[C@@H](O)[C@H]1O ?
Result string: no

Query string: Try O=c1c(O)c(-c2ccc(O)cc2)oc2cc(O)cc(O)c12 next.
Result string: yes

Query string: # iterate: NC1=N[C@@]2(c3cc(NC(=O)c4ccc(F)cn4)ccc3F)COC[C@@H]2CS1
Result string: yes

Query string: For COc1ccc(C2Sc3ccccc3N(CCN(C)C)C(=O)C2OC(C)=O)cc1 (configuration not stated) then?
Result string: no

====

- Study System: Tyrosine-protein kinase Yes (Homo sapiens)
- Test Description: qHTS for small molecule inhibitors of Yes1 kinase: Primary Screen (AID 686947); also: nearly all actives have a fitted effect of over 60% in size
- Test Context: Yes1 kinase biochemical qHTS inhibition; series mostly up to 76.9 µM
Inconclusive results are not listed. The source made the active and inactive calls. Calls follow the shape of the dose curve; as a rule, active = well fitted inhibition curve with a large enough effect; inconclusive = small, poorly fitted or top-dose-only effect; inactive = no such curve, though single readings can be large or run the other way.
Just give me one of these, please: yes = active, no = inactive

Example entries begin here.
Compound	Assigned Label
CO[C@H]1C=CC=C(C)C(=O)NC2=CC(=O)C(NCCN(C)C)=C(C[C@@H](C)C[C@H](OC)[C@@H](O)[C@@H](C)C=C(C)[C@@H]1OC(N)=O)C2=O	no
Cc1nc(N)sc1-c1ccnc(Nc2ccc(N3CCOCC3)cc2)n1	yes
O=C(Nc1ccccc1-c1cn2c(CN3CCNCC3)csc2n1)c1cnc2ccccc2n1	no
CCOc1ccc(Nc2nc(-c3c(C)nc4ccccn34)cs2)cc1	no
O=C1C(Cl)=C(NCCN2CCOCC2)C(=O)c2ncccc21	yes

Please examine the following record next.
Query string: Could you check what this test reported for O=C(CCCCCCC(=O)Nc1ccccc1)NO ?
Result string: no
